# system-tested: MAGL (Mus musculus)
# protocol: biochemical
# condition-description: mouse; in vitro competitive ABPP; read-out: Mouse (IC50 value, nM) MAGL
# Lookup of reported IC50 keyed by entry

In: Please report the measured IC50 for O=C(OC(C(F)(F)F)C(F)(F)F)N1CC2CN(Cc3ccc(F)cc3N3CCCC3)CC2C1 (stereo not shown) tested on MAGL (Mus musculus).
Out: 100 to 1000 nM

In: # lookup: MAGL (Mus musculus) IC50, key = O=C(OC(C(F)(F)F)C(F)(F)F)N1CC2CN(Cc3cc(CN4CCCCC4)ccc3OC(F)(F)F)CC2C1 (stereo not shown)
Out: 100 to 1000 nM

In: Name the recorded IC50 of O=C(OC(C(F)(F)F)C(F)(F)F)N1CC2CN(Cc3ccc(Cl)cc3N3Cc4cccnc4C3)CC2C1 (stereo not shown) , assay system MAGL (Mus musculus).
Out: < 100 nM

In: Look up and report IC50, with MAGL (Mus musculus) as system, for CC(=O)N1CCN(c2cc(C(C)C)ccc2CN2CC3CN(C(=O)OC(C(F)(F)F)C(F)(F)F)CC3C2)CC1 (stereo not shown)
Out: < 100 nM

In: Fill in IC50 for Cc1cccc(CN2CC3CN(C(=O)OC(C(F)(F)F)C(F)(F)F)CC3C2)c1N1CCOCC1 (stereo not shown) tested with MAGL (Mus musculus).
Out: 100 to 1000 nM

In: Look up and report measured IC50 (MAGL (Mus musculus)) for the following molecule: C#CCNC(=O)c1nn(CC)cc1CN1CC2CN(C(=O)OC(C(F)(F)F)C(F)(F)F)CC2C1 (stereo not shown)
Out: 100 to 1000 nM

In: Output reported IC50 of the molecule CC(C)n1cc(CN2CC3CN(C(=O)OC(C(F)(F)F)C(F)(F)F)CC3C2)c(-c2ccccc2)n1 (stereo not shown) on MAGL (Mus musculus).
Out: < 100 nM

###

# system-tested: FAAH (Mus musculus, UniProt O08914)
# Sequence (O08914 whole entry): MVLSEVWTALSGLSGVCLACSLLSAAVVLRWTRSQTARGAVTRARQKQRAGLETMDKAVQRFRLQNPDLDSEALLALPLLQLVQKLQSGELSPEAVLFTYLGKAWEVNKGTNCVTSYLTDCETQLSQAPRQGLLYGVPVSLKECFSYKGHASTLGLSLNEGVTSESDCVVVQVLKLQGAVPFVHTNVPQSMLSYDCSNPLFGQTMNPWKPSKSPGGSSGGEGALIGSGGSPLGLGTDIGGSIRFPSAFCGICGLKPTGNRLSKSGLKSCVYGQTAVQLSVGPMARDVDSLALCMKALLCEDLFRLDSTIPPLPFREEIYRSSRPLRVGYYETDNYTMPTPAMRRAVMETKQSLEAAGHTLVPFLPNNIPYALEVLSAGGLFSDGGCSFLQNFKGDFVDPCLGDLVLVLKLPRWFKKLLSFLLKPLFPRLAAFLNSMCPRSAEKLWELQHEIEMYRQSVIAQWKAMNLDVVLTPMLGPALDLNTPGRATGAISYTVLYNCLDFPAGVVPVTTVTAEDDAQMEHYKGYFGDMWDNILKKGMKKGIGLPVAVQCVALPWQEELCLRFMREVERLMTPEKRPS
# protocol: biochemical
# condition-description: in vitro competitive ABPP
recorded-metric: IC50

Some solved cases for reference:
O=C(OC(C(F)(F)F)C(F)(F)F)N1CC2CN(Cc3cccc(Cl)c3N3CCC(F)(F)CC3)CC2C1 (stereo not drawn)    > 10000 nM
CCn1cc(CN2CC3CN(C(=O)OC(C(F)(F)F)C(F)(F)F)CC3C2)c(-c2ccc(N3CCC3)cc2)n1 (stereo not drawn)    1000 to 10000 nM
O=C(OC(C(F)(F)F)C(F)(F)F)N1CC2CN(Cc3cccc(N4CCOCC4)c3Cl)CC2C1 (stereo not drawn)    1000 to 10000 nM
O=C(ON1C(=O)CCC1=O)N1CC2CN(Cc3cccc(Cl)c3N3CCC(F)CC3)CC2C1 (stereo not drawn)    1000 to 10000 nM
CC(=O)N1CCC2(CCN(c3ccccc3CN3CC4CN(C(=O)OC(C(F)(F)F)C(F)(F)F)CC4C3)C2)C1 (stereo not drawn)    1000 to 10000 nM
Cc1ccc(CN2CC3CN(C(=O)OC(C(F)(F)F)C(F)(F)F)CC3C2)c(-c2ccccc2)c1 (stereo not drawn)    1000 to 10000 nM
O=C(OC(C(F)(F)F)C(F)(F)F)N1CC2CN(Cc3ccc(N4CCOCC4)cc3OC(F)(F)F)CC2C1 (stereo not drawn)    100 to 1000 nM
Cc1c(CN2CC3CN(C(=O)ON4C(=O)CCC4=O)CC3C2)cccc1N1CCC(F)(F)CC1 (stereo not drawn)    100 to 1000 nM
Cc1c(CN2CC3CN(C(=O)OC(C(F)(F)F)C(F)(F)F)CC3C2)cccc1N1CCC(F)(F)CC1 (stereo not drawn)    1000 to 10000 nM
O=C(OC(C(F)(F)F)C(F)(F)F)N1CC2CN(Cc3ccc(N4CCCC4)cc3C(F)F)CC2C1 (stereo not drawn)    1000 to 10000 nM

In: Give the reported value of IC50 for this record: Cc1cccc(CN2CC3CN(C(=O)OC(C(F)(F)F)C(F)(F)F)CC3C2)c1N1CCC2(CCOC2)C1 (stereo not drawn)
Out: 1000 to 10000 nM

In: Give IC50 for O=C(ON1C(=O)CCC1=O)N1CC2CN(Cc3ccc(Cl)cc3N3CCOC4CCCC43)CC2C1 (stereo not drawn)
Out: 1000 to 10000 nM

In: Find the measured IC50 of CC(C)c1cc(CN2CC3CN(C(=O)OC(C(F)(F)F)C(F)(F)F)CC3C2)n(C2CCCCC2)n1 (stereo not drawn) and report it.
Out: > 10000 nM

###

# system-tested: FAAH (Mus musculus)
# protocol: biochemical
# condition-description: in vitro competitive ABPP
Measured IC50 of individual entries

Would you please look over these solved cases?
O=C(OC(C(F)(F)F)C(F)(F)F)N1CC2CN(Cc3ccc(C(=O)N4CCCCC4)c(OC(F)(F)F)c3)CC2C1 (stereo not drawn)    > 10000 nM
Cc1c(CN2CC3CN(C(=O)OC(C(F)(F)F)C(F)(F)F)CC3C2)cccc1C(=O)N1CCCC1 (stereo not drawn)    1000 to 10000 nM

In: Report the value of IC50 obtained on FAAH (Mus musculus) for O=C(OC(C(F)(F)F)C(F)(F)F)N1CC2CN(Cc3ccc(Cl)cc3N3CCn4ccnc4C3)CC2C1 (stereo not drawn) .
Out: 1000 to 10000 nM

###

Reported inhibition at 1 µM values for a set of compounds
# system-tested: FAAH (Mus musculus)
# protocol: In vitro competitive activity-based protein profiling (Table 2, % inhibition at 1 μM)
# Type: biochemical
# condition-description: read-out: % Inhibition at 1 μM FAAH

Cc1c(CN2CC3CN(C(=O)OC(C(F)(F)F)C(F)(F)F)CC3C2)cccc1N1CCOCC1 (stereo not shown) [Example 47]    25 to 75%
O=C(ON1C(=O)CCC1=O)N1CC2CN(Cc3ccc(Cl)cc3N3CCN4CCC[C@@H]4C3)CC2C1 (stereo partly shown) [Example 109]    < 25%
O=C(OC(C(F)(F)F)C(F)(F)F)N1CC2CN(Cc3ccc(Cl)cc3N3CC4COCC4C3)CC2C1 (stereo not shown) [Example 208]    < 25%

In: Look up and report measured inhibition at 1 µM for this entry: O=C(ON1C(=O)CCC1=O)N1CC2CN(Cc3cccc(-c4ccccc4)c3)CC2C1 (stereo not shown) [Example 88]
Out: > 75%

In: Look up inhibition at 1 µM of Cn1nc(-c2ccccc2)cc1CN1CC2CN(C(=O)ON3C(=O)CCC3=O)CC2C1 (stereo not shown) [Example 197] and report it.
Out: < 25%

In: For the compound O=C(OC(C(F)(F)F)C(F)(F)F)N1CC2CN(Cc3ccc(C(=O)N4CCCC4)c(OC(F)(F)F)c3)CC2C1 (stereo not shown) [Example 193] , report inhibition at 1 µM.
Out: < 25%

In: Kindly indicate its recorded inhibition at 1 µM. Item: O=C(OC(C(F)(F)F)C(F)(F)F)N1CC2CN(Cc3cccc(Cl)c3N3CCC4(CCOCC4)C3)CC2C1 (stereo not shown) [Example 172]
Out: < 25%

###

Listed below: inhibition at 1 µM values for each entry.
# system-tested: UniProtKB O35678
# Sequence (O35678 1-303): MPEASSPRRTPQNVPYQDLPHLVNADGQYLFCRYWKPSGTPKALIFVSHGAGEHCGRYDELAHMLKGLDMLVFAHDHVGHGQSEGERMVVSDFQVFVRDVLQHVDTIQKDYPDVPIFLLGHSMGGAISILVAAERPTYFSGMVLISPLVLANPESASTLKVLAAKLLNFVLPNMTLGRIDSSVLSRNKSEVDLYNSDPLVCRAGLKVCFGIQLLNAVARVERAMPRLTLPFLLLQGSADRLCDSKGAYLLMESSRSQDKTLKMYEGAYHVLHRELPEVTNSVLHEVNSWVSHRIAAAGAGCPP
# protocol: In vitro competitive activity-based protein profiling (Table 2, % inhibition at 1 μM)
# Assay type: biochemical
# condition-description: read-out: % Inhibition at 1 μM MAGL
# Description: After 30 min, FP—Rh (1.0 μL, 50 μM in DMSO) was added and the mixture was incubated for another 30 min at 37° C. Reactions were quenched with SDS loading buffer (50 μL-4×) and run on SDS-PAGE. Cell lysates were diluted with mock proteomes for use in competitive ABPP experiments.

Reference set, count: 5
Cc1cccc(CN2CC3CN(C(=O)OC(C(F)(F)F)C(F)(F)F)CC3C2)c1N1CCCCC1 (stereo not drawn) [Example 30]    > 75%
Cc1cccc(CN2CC3CN(C(=O)OC(C(F)(F)F)C(F)(F)F)CC3C2)c1N1CCN(C)CC1 (stereo not drawn) [Example 147]    > 75%
O=C(OC(C(F)(F)F)C(F)(F)F)N1CC2CN(Cc3ccc(F)cc3N3CCCC3)CC2C1 (stereo not drawn) [Example 15]    > 75%
CC(=O)N1CCC(c2nn(C(C)C)cc2CN2CC3CN(C(=O)OC(C(F)(F)F)C(F)(F)F)CC3C2)CC1 (stereo not drawn) [Example 55]    > 75%
Cn1nc(-c2cccc(F)c2)cc1CN1CC2CN(C(=O)ON3C(=O)CCC3=O)CC2C1 (stereo not drawn) [Example 198]    < 25%

In: Look up and state reported inhibition at 1 µM for CC(C)n1cc(CN2CC3CN(C(=O)OC(C(F)(F)F)C(F)(F)F)CC3C2)c(C2CCN(S(C)(=O)=O)CC2)n1 (stereo not drawn) [Example 57]
Out: > 75%
